Reported values of mortality at 4 mg/m2 for individual entries
- Tested on: adult flies Musca domestica strain WHO-N
- experiment: Musca domestica test (MUSCDO surface treatment & contact assay)
- Assay type: in vivo
- conditionLabel: surface concentration 4 mg/m^2, 30 min exposure, 24 hours after contact, read-out: efficacy (mortality)
- Protocol: Musca domestica Test (MUSCDO Surface Treatment & Contact Assay) • Solvent: Aceton+2000 ppm rapeseed oil methyl ester (RME) In order to produce a sufficient, active ingredient containing solution it is necessary to solve the test compound in the solvent-mix (acetone at 2 mg/ml/RME 2000 ppm). […] Mortality in percent (%) is determined 24 hours after contact of the insects to the treated surface. […]
experimentalReadout: mortality at 4 mg/m2

1) Cc1nc([C@H](C)NC(=O)c2cc(OC(F)(F)F)cc(C3CC3)c2)n(-c2ncc(C#N)s2)n1; 90 to 100%
2) Cc1nc([C@H](C)NC(=O)c2cc(Cl)cc(C(F)F)c2)n(-c2ncc(C#N)s2)n1; 90 to 100%
3) Cc1nc([C@H](C)NC(=O)c2cc(C(F)(F)F)cc(C(F)(F)F)c2)n(-c2ncc(C(N)=O)s2)n1; 90 to 100%

====

Reported values of efficacy (fleas dead or moribund) for individual entries
- Test system: adult cat fleas (Ctenocephalides felis)
- experiment: Ctenocephalides felis in-vitro contact test, adult cat flea
- Assay type: in vivo
- conditionLabel: 5 μg/cm^2 (=500 g/ha), after 48 hours
experimentalReadout: efficacy (fleas dead or moribund) (%)

1. C[C@H](NC(=O)c1cc(C(F)(F)F)cc(S(C)(=O)=O)c1)c1ncnn1-c1ncc(C(=O)N(C)C)s1 [I-65]; 100
2. Cc1nc([C@H](C)NC(=O)c2cc(Br)cc(OC(F)(F)F)c2)n(-c2ncc(C(=O)N(C)CC#N)s2)n1 [I-125]; 100
3. CC(NC(=O)c1cc(C(F)(F)F)cc(S(C)(=O)=O)c1)c1ncnn1-c1ncc(C#N)s1 (stereo not shown) [I-82]; 80
4. C[C@H](NC(=O)c1cc(Br)cc(OC(F)F)c1)c1ncnn1-c1ncc(C#N)s1 [I-39]; 80
5. C[C@H](NC(=O)c1cc(C(F)F)cc(C(F)F)c1)c1ncnn1-c1ncc(C#N)s1 [I-97]; 100
6. C[C@H](NC(=O)c1cc(C(F)(F)F)cc(C(F)(F)F)c1)c1ncnn1-c1ncc(C#N)s1 [I-2]; 80
7. Cc1nc([C@H](C)NC(=O)c2cc(Br)cc(OC(F)(F)F)c2)n(-c2ncc(C(=O)N(C)CC3CC3)s2)n1 [I-124]; 100
8. C[C@H](NC(=O)c1cc(OC(F)(F)F)cc(C2CC2)c1)c1ncnn1-c1ncc(C(=O)N(C)C)s1 [I-89]; 100
9. Cc1nc([C@H](C)NC(=O)c2cc(C(F)(F)F)cc(C(F)(F)F)c2)n(-c2ncc(C(=O)N(C)CC#N)s2)n1 [I-9]; 100
10. CC(NC(=O)c1cc(OC(F)(F)F)cc(S(C)(=O)=O)c1)c1ncnn1-c1ncc(C#N)s1 (stereo not shown) [I-37]; 80
11. Cc1nc([C@H](C)NC(=O)c2cc(C(F)(F)F)cc(S(C)(=O)=O)c2)n(-c2ncc(C(=O)N(C)C)s2)n1 [I-83]; 80
12. Cc1nc([C@H](C)NC(=O)c2cc(Br)cc(Br)c2)n(-c2ncc(C(=O)N(C)CC#N)s2)n1 [I-72]; 80
13. Cc1nc([C@H](C)NC(=O)c2cc(C(F)(F)F)cc(C(F)(F)F)c2)n(-c2ncc(C(=O)N(C)C)s2)n1 [I-5]; 100
14. Cc1nc([C@H](C)NC(=O)c2cc(Cl)cc(I)c2)n(-c2ncc(C(=O)N(C)C)s2)n1 [I-76]; 80
15. Cc1nc([C@H](C)NC(=O)c2cc(Br)cc(OC(F)(F)F)c2)n(-c2ncc(C#N)s2)n1 [I-17]; 80
16. C[C@H](NC(=O)c1cc(OC(F)F)cc(OC(F)F)c1)c1ncnn1-c1ncc(C#N)s1 [I-94]; 100
17. Cc1nc([C@H](C)NC(=O)c2cc(C(F)(F)F)cc(C(F)(F)F)c2)n(-c2ncc(C(N)=O)s2)n1 [I-21]; 100
18. CCN(C)C(=O)c1cnc(-n2nc(C)nc2[C@H](C)NC(=O)c2cc(C(F)(F)F)cc(C(F)(F)F)c2)s1 [I-6]; 100
19. Cc1nc([C@H](C)NC(=O)c2cc(OC(F)(F)F)cc(C3CC3)c2)n(-c2ncc(C(=O)N(C)CC#N)s2)n1 [I-24]; 100
20. CNC(=O)c1cnc(-n2nc(C)nc2[C@H](C)NC(=O)c2cc(Cl)cc(C(F)(F)F)c2)s1 [I-69]; 90
21. Cc1nc([C@H](C)NC(=O)c2cc(Br)cc(C#N)c2)n(-c2ncc(C(=O)N(C)CC#N)s2)n1 [I-75]; 90
22. Cc1nc([C@H](C)NC(=O)c2cc(C(F)(F)F)cc(C(F)(F)F)c2)n(-c2ncc(C(=O)N(C)CC3CC3)s2)n1 [I-4]; 100
23. Cc1nc([C@H](C)NC(=O)c2cc(Br)cc(Br)c2)n(-c2ncc(C(=O)N(C)C)s2)n1 [I-71]; 100
24. C[C@H](NC(=O)c1cc(OC(F)(F)F)cc(C(F)F)c1)c1ncnn1-c1ncc(C#N)s1 [I-98]; 100
25. Cc1nc([C@H](C)NC(=O)c2cc(Br)cc(C#N)c2)n(-c2ncc(C(=O)N(C)C)s2)n1 [I-70]; 100
26. Cc1nc([C@H](C)NC(=O)c2cc(Br)cc(C#N)c2)n(-c2ncc(C#N)s2)n1 [I-15]; 100
27. Cc1nc([C@H](C)NC(=O)c2cc(Cl)cc(C(F)(F)F)c2)n(-c2ncc(C(=O)N(C)CC#N)s2)n1 [I-23]; 100
28. CC(NC(=O)c1cc(Cl)cc(OC(F)(F)F)c1)c1ncnn1-c1ncc(C#N)s1 (stereo not shown) [I-28]; 100

====

- System: adult brown dog ticks (Rhipicephalus sanguineus)
- experiment: Rhipicephalus sanguineus in-vitro contact test with adult brown dog ticks
- Assay type: in vivo
- conditionLabel: 5 μg/cm^2 (=500 g/ha), after 48 hours, read-out: efficacy (ticks dead or moribund)
Reported values of pest or weed control at 5 µg/cm2, 500 g/ha for individual entries
experimentalReadout: pest or weed control at 5 µg/cm2, 500 g/ha (%)

1. C[C@H](NC(=O)c1cc(C(F)(F)F)cc(C(F)(F)F)c1)c1ncnn1-c1ncc(C(=O)N(C)C)s1 [I-64]; 100
2. Cc1nc([C@H](C)NC(=O)c2cc(C(F)(F)F)cc(C(F)(F)F)c2)n(-c2ncc(C(=O)N(C)CC3CC3)s2)n1 [I-4]; 100
3. C[C@H](NC(=O)c1cc(OC(F)(F)F)cc(C2CC2)c1)c1ncnn1-c1ncc(C(=O)N(C)C)s1 [I-89]; 80
4. Cc1nc([C@H](C)NC(=O)c2cc(Cl)nc(C(F)(F)F)c2)n(-c2ncc(C#N)s2)n1 [I-20]; 100
5. Cc1nc([C@H](C)NC(=O)c2cc(C(F)(F)F)cc(C(F)(F)F)c2)n(-c2ncc(C(=O)N(C)CC(C)C)s2)n1 [I-8]; 100
6. Cc1nc([C@H](C)NC(=O)c2cc(Br)cc(C(F)(F)F)c2)n(-c2ncc(C#N)s2)n1 [I-14]; 100
7. Cc1nc([C@H](C)NC(=O)c2cc(Br)cc(C#N)c2)n(-c2ncc(C#N)s2)n1 [I-15]; 100
8. C[C@H](NC(=O)c1cc(C(F)F)cc(C(F)F)c1)c1ncnn1-c1ncc(C#N)s1 [I-97]; 100
9. CCN(C)C(=O)c1cnc(-n2nc(C)nc2[C@H](C)NC(=O)c2cc(C(F)(F)F)cc(C(F)(F)F)c2)s1 [I-6]; 100
10. C[C@H](NC(=O)c1cc(OC(F)(F)F)cc(C(F)F)c1)c1ncnn1-c1ncc(C#N)s1 [I-98]; 100
11. Cc1nc([C@H](C)NC(=O)c2cc(Br)cc(OC(F)(F)F)c2)n(-c2ncc(C(=O)N(C)CC#N)s2)n1 [I-125]; 80
12. Cc1nc([C@H](C)NC(=O)c2cc(C(F)(F)F)cc(C(F)(F)F)c2)n(-c2ncc(C(=O)N(C)CC#N)s2)n1 [I-9]; 100
13. COCCN(C)C(=O)c1cnc(-n2nc(C)nc2[C@H](C)NC(=O)c2cc(C(F)(F)F)cc(C(F)(F)F)c2)s1 [I-3]; 100

====

- System: larvae of the banded cucumber beetle (Diabrotica balteata)
- experiment: Diabrotica balteata spray test
- Format: in vivo
- conditionLabel: 168 h, 100 g/ha (=32 μg/well), wheat seeds, after 7 days, read-out: efficacy (seedling growth)
Reported values of pest or weed control at 32 µg/disc, 100 g/ha for individual entries
experimentalReadout: pest or weed control at 32 µg/disc, 100 g/ha (%)

1. Cc1nc([C@H](C)NC(=O)c2cc(Cl)cc(C(F)(F)F)c2)n(-c2ncc(C(=O)N(C)C)s2)n1; 100
2. C[C@H](NC(=O)c1cc(C2CC2)cc(C(C)(F)F)c1)c1ncnn1-c1ncc(C#N)s1; 100
3. Cc1nc([C@H](C)NC(=O)c2cc(Br)cc(C(F)(F)F)c2)n(-c2ncc(C#N)s2)n1; 100
